Target: Fuc(a1-2)Gal6S(b1-4)Glc6S
Assay: glycan array binding signal (z-score within array); higher = stronger binding
Details: glycan notation: IUPAC condensed, linker removed
The entries come from a sample that favours the strongest signals as a whole.
reported.metric: glycan array binding signal (z-score)
Give a plain numeric answer without units written out.

(Q) State the recorded glycan array binding signal (z-score) for this entry: ECA (Erythrina cristagalli), P83410 (protein) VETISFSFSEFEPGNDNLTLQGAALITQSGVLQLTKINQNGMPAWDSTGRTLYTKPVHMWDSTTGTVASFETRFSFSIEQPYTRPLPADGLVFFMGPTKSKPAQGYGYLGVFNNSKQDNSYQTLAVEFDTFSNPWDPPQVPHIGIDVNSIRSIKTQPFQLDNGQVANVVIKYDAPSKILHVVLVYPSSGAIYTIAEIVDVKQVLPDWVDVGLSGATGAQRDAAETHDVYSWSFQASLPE
(A) -0.123

(Q) Another binder to check: Erv46-EDTA (Saccharomyces cerevisiae), P39727 (protein) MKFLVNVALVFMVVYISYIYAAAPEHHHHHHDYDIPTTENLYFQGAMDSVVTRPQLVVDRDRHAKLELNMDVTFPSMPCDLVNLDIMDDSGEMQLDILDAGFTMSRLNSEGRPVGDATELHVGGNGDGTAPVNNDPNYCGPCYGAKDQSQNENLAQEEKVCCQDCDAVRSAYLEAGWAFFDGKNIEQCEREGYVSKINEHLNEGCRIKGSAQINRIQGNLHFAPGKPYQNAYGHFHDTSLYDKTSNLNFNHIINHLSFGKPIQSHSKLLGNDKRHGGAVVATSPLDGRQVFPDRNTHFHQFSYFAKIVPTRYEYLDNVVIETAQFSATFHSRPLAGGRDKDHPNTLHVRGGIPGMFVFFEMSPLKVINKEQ
(A) 0.075
